Below is a list of entries, each paired with its recorded IC50 value.
Molecular target: Cav3.2 (Homo sapiens)
Assay: Calcium flux FLIPR assay, HEK293 cells recombinantly expressing Cav3.2
Conditions: Cav3.2-channel, Ca2+ entry stimulated by 10 mM CaCl2

{"compound": "CC(C)c1ccc(CC(=O)Nc2cnn(Cc3ccc(OC(F)(F)F)c(F)c3)n2)cc1 [Example 187]", "IC50 / nM": 65}
{"compound": "Cc1ccc(Cn2ncc(NC(=O)Cc3ccc4c(cnn4C)c3)n2)cc1C#N [Example 204]", "IC50 / nM": 280}
{"compound": "Cc1cn(C)c2ccc(CC(=O)Nc3cnn(Cc4ccc(C#N)cn4)n3)cc12 [Example 243]", "IC50 / nM": 110}
{"compound": "O=C(Cc1ccc(N2CCCC2)nc1)Nc1cnn(Cc2ccc(F)cc2)n1 [Example 55]", "IC50 / nM": 50}
{"compound": "O=C(Cc1ccc(OC2CCC2)cc1)Nc1cnn(Cc2ccc(F)c(F)c2)n1 [Example 9]", "IC50 / nM": 22}
{"compound": "CCn1ncc2cc(CC(=O)Nc3cnn(Cc4ccc(C#N)cc4)n3)ccc21 [Example 103]", "IC50 / nM": 74}
{"compound": "COc1ccc(Cn2ncc(NC(=O)Cc3ccc4c(cnn4C)c3)n2)cc1 [Example 63]", "IC50 / nM": 160}
{"compound": "COc1cc(Cn2ncc(NC(=O)Cc3ccc(N4CCCC4)nc3)n2)cc(F)c1F [Example 221]", "IC50 / nM": 160}
{"compound": "Cn1ncc2cc(CC(=O)Nc3cnn(Cc4ccc(OC(F)(F)F)cc4)n3)ccc21 [Example 92]", "IC50 / nM": 9.9}
{"compound": "CC(C)n1ncc2cc(CC(=O)Nc3cnn(Cc4ccc(F)c(F)c4)n3)ccc21 [Example 33]", "IC50 / nM": 24}
{"compound": "Cn1ncc2cc(CC(=O)Nc3cnn(Cc4ccc(C#N)cc4)n3)ccc21 [Example 234]", "IC50 / nM": 76}
{"compound": "Cn1ccc2cc(CC(=O)Nc3cnn(Cc4ccc(F)c(F)c4)n3)ccc21 [Example 7]", "IC50 / nM": 6.4}
{"compound": "Cn1ccc2cc(CC(=O)Nc3cnn(Cc4ccc(F)cc4)n3)ccc21 [Example 52]", "IC50 / nM": 12}
{"compound": "CC(C)(C)c1ccc(CC(=O)Nc2cnn(Cc3ccc(OC(F)F)cc3)n2)cc1 [Example 88]", "IC50 / nM": 56}
{"compound": "Cn1ncc2ccc(CC(=O)Nc3cnn(Cc4ccc(C#N)c(F)c4)n3)cc21 [Example 132]", "IC50 / nM": 180}
{"compound": "COc1ccc(Cn2ncc(NC(=O)Cc3ccc(C(C)(C)C)cc3)n2)cc1F [Example 130]", "IC50 / nM": 62}
{"compound": "COc1cc(Cn2ncc(NC(=O)Cc3ccc(OCC4(C)COC4)cc3)n2)ccc1F [Example 112]", "IC50 / nM": 190}
{"compound": "COCCOc1ccc(Cn2ncc(NC(=O)Cc3ccc(C(C)(C)C)cc3)n2)cc1 [Example 86]", "IC50 / nM": 130}

====

Listed compounds paired with reported pIC50
Target: Cav3.2 (Homo sapiens, UniProt O95180)
Sequence (O95180 whole entry, looked up): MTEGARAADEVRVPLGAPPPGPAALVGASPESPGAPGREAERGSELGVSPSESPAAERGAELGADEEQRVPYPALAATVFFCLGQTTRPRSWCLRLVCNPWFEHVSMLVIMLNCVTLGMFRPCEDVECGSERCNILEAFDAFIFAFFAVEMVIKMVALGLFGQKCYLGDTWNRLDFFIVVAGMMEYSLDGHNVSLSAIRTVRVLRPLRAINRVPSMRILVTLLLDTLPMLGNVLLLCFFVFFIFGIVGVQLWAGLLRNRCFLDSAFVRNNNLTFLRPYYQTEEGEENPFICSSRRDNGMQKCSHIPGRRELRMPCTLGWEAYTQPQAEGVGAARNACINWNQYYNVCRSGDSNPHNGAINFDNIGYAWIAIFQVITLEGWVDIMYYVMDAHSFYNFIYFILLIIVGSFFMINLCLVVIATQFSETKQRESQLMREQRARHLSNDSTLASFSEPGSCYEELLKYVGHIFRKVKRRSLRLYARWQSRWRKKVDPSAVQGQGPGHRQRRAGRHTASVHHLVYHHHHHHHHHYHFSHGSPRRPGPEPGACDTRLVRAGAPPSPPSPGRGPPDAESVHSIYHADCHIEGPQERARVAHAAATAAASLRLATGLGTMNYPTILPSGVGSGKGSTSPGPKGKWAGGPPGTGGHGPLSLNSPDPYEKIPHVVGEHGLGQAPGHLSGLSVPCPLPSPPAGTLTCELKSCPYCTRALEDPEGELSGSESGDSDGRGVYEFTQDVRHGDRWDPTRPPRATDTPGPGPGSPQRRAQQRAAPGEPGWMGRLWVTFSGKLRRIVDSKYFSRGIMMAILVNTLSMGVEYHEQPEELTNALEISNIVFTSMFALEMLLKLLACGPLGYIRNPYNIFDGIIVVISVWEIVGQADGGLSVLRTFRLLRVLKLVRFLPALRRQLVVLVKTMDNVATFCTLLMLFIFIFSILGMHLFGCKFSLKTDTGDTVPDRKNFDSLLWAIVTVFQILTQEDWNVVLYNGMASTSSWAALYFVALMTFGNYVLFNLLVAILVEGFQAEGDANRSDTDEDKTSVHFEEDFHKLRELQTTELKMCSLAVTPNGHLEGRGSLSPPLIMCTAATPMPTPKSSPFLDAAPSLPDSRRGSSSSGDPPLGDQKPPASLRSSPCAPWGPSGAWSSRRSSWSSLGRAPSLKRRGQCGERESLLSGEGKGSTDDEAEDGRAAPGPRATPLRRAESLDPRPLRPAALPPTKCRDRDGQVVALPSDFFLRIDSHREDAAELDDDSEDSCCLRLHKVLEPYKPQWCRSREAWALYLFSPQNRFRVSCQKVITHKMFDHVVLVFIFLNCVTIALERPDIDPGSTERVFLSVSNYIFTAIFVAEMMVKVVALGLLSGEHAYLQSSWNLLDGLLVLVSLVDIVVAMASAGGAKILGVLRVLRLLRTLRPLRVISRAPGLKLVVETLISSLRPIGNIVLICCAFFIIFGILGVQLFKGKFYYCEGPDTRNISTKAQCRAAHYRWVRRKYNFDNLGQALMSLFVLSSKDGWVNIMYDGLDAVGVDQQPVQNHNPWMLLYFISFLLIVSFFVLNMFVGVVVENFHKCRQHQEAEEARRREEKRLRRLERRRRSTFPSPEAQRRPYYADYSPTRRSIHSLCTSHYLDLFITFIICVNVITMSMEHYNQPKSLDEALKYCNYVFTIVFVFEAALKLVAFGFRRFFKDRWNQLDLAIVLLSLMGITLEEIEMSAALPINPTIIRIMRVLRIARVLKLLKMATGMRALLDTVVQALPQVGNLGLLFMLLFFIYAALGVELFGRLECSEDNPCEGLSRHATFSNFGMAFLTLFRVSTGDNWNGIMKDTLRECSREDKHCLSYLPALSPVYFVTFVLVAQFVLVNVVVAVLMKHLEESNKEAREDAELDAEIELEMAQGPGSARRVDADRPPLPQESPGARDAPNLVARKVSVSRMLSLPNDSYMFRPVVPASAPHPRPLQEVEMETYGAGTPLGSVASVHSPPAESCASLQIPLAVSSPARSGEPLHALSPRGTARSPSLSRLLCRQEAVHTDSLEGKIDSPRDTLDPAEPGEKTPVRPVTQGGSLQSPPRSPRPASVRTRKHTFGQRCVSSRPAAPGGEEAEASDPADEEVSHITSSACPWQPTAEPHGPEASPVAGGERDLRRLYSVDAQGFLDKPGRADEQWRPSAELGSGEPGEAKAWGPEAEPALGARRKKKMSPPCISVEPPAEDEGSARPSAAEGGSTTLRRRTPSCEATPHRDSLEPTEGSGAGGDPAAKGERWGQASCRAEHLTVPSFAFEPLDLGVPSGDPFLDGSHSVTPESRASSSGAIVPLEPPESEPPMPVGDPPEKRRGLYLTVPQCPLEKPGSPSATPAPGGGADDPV
Assay: Calcium flux FLIPR assay, HEK293 cells recombinantly expressing Cav3.2
Settings: Cav3.2-channel, Ca2+ entry stimulated by 10 mM CaCl2
pIC50: −log10 of the molar value.

{"query.smiles": "N#Cc1ccc(Cn2ncc(NC(=O)Cc3ccc(C4(C(F)(F)F)CC4)cc3)n2)cc1", "system.under.test": "Cav3.2 (Homo sapiens, UniProt O95180)", "pIC50": 7.20}
{"query.smiles": "COc1c(F)cc(Cn2ncc(NC(=O)Cc3ccc(C4(F)COC4)cc3)n2)cc1F", "system.under.test": "Cav3.2 (Homo sapiens, UniProt O95180)", "pIC50": 7.46}
{"query.smiles": "Cc1ccc(Cn2ncc(NC(=O)Cc3ccc(N4CCC(F)(F)C4)nc3)n2)cc1", "system.under.test": "Cav3.2 (Homo sapiens, UniProt O95180)", "pIC50": 7.64}
{"query.smiles": "CCOc1ccc(Cn2ncc(NC(=O)Cc3ccc4c(ccn4C)c3)n2)cc1", "system.under.test": "Cav3.2 (Homo sapiens, UniProt O95180)", "pIC50": 7.46}
{"query.smiles": "CN(c1ccc(CC(=O)Nc2cnn(Cc3ccc(F)c(F)c3)n2)cn1)C1CC1", "system.under.test": "Cav3.2 (Homo sapiens, UniProt O95180)", "pIC50": 7.49}
{"query.smiles": "COc1cc(Cn2ncc(NC(=O)Cc3ccc(OCC4COC4)cc3)n2)ccc1F", "system.under.test": "Cav3.2 (Homo sapiens, UniProt O95180)", "pIC50": 6.52}
{"query.smiles": "N#Cc1ccc(Cn2ncc(NC(=O)Cc3cnc(N4CCCC4)c(F)c3)n2)nc1", "system.under.test": "Cav3.2 (Homo sapiens, UniProt O95180)", "pIC50": 6.16}
{"query.smiles": "COc1ccc(Cn2ncc(NC(=O)Cc3ccc(C(C)C)cc3)n2)cc1", "system.under.test": "Cav3.2 (Homo sapiens, UniProt O95180)", "pIC50": 7.48}
